target: human V1a receptor (Homo sapiens); construct: expressed in transfected cells; host or cells: HEK293 cells, transiently transfected; membranes prepared; test: human V1a receptor binding (3H-Vasopressin SPA, HEK293 membranes); details: membranes of HEK293 cells transiently transfected with human V1a receptor, Ki by Cheng-Prussoff, read-out: pKi (hV1a) (converted)
Sequence (P37288 whole entry): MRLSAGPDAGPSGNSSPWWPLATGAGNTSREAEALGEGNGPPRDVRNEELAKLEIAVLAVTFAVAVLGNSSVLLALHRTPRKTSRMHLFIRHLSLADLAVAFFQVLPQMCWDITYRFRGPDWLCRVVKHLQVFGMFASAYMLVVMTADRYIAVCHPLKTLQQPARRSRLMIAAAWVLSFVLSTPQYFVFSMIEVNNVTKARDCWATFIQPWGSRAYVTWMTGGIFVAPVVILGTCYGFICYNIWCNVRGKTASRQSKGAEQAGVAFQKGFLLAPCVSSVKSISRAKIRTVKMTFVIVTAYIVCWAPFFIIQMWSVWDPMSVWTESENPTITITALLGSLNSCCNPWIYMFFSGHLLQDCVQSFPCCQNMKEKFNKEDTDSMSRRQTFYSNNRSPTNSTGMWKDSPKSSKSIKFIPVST
Structures can show the parent of a compound that is named as a salt.
measured quantity: Ki (nM)
Give your result in nM as a bare value.

response.value for "Cc1nn([C@H]2CC[C@H](c3nnc4n3-c3ccc(Cl)cc3CN(C)C4)CC2)c(C)c1C" (field: Ki) = 1.95

response.value for "CC(C)c1nc([C@H]2CC[C@H](c3nnc4n3-c3ccc(Cl)cc3CN(C(=O)OC(C)(C)C)C4)CC2)no1" (field: Ki) = 3.09

response.value for "Cc1nc([C@H]2CC[C@H](c3nnc4n3-c3ccc(Cl)cc3CN(C(=O)OC(C)(C)C)C4)CC2)oc1Cl" (field: Ki) = 1.1

response.value for "CN1Cc2cc(Cl)ccc2-n2c(nnc2[C@H]2CC[C@@H](n3cccn3)CC2)C1" (field: Ki) = 794

response.value for "Cc1onc([C@H]2CC[C@H](c3nnc4n3-c3ccc(Cl)cc3CN(C(=O)OC(C)(C)C)C4)CC2)c1C" (field: Ki) = 0.2

response.value for "CC(C)c1nc([C@H]2CC[C@@H](c3nnc4n3-c3ccc(Cl)cc3CN(C(=O)OC(C)(C)C)C4)CC2)no1" (field: Ki) = 34.7

response.value for "Cc1nc([C@H]2CC[C@H](c3nnc4n3-c3ccc(Cl)cc3CN(C)C4)CC2)oc1C" (field: Ki) = 0.851

response.value for "Cc1onc([C@H]2CC[C@H](c3nnc4n3-c3ccc(Cl)cc3CN(C(=O)OC(C)(C)C)C4)CC2)c1Cl" (field: Ki) = 0.398

response.value for "Cc1nc([C@H]2CC[C@H](c3nnc4n3-c3ccc(Cl)cc3CN(C3CCCC3)C4)CC2)no1" (field: Ki) = 5.89

response.value for "COCCN1Cc2cc(Cl)ccc2-n2c(nnc2[C@H]2CC[C@H](c3cc(C)on3)CC2)C1" (field: Ki) = 1.58

response.value for "Cc1cc([C@H]2CC[C@H](c3nnc4n3-c3ccc(Cl)cc3CN(S(=O)(=O)N(C)C)C4)CC2)no1" (field: Ki) = 0.501

response.value for "Cc1csc([C@H]2CC[C@H](c3nnc4n3-c3ccc(Cl)cc3CN(C(=O)OC(C)(C)C)C4)CC2)n1" (field: Ki) = 0.302

response.value for "Cc1nc([C@H]2CC[C@@H](c3nnc4n3-c3ccc(Cl)cc3CN(C)C4)CC2)no1" (field: Ki) = 135

response.value for "CN1Cc2cc(Cl)ccc2-n2c(nnc2[C@H]2CC[C@H](c3ncco3)CC2)C1" (field: Ki) = 10.5

response.value for "Cc1csc([C@H]2CC[C@H](c3nnc4n3-c3ccc(Cl)cc3CNC4)CC2)n1" (field: Ki) = 7.59

response.value for "Cc1cc(C)n([C@H]2CC[C@H](c3nnc4n3-c3ccc(Cl)cc3CN(C)C4)CC2)n1" (field: Ki) = 6.92

response.value for Cc1noc([C@H]2CC[C@H](c3nnc4n3-c3ccc(Cl)cc3CNC4)CC2)n1 [Example 67, hydrochloride] (field: Ki) = 67.6

response.value for "Cc1onc([C@H]2CC[C@H](c3nnc4n3-c3ccc(Cl)cc3CN(C)C4)CC2)c1F" (field: Ki) = 0.575

response.value for "CC(C)(C)OC(=O)N1Cc2cc(Cl)ccc2-n2c(nnc2[C@H]2CC[C@@H](n3cccn3)CC2)C1" (field: Ki) = 75.9

response.value for "Cc1nnc([C@H]2CC[C@H](c3nnc4n3-c3ccc(Cl)cc3CNC4)CC2)o1" (field: Ki) = 204

response.value for "Cc1nc([C@H]2CC[C@H](c3nnc4n3-c3ccc(Cl)cc3CN(C(=O)OC(C)(C)C)C4)CC2)cs1" (field: Ki) = 0.2

response.value for "Cc1cc([C@H]2CC[C@H](c3nnc4n3-c3ccc(Cl)cc3CN(S(C)(=O)=O)C4)CC2)no1" (field: Ki) = 0.275

response.value for "CCc1cc([C@H]2CC[C@@H](c3nnc4n3-c3ccc(Cl)cc3CN(C)C4)CC2)no1" (field: Ki) = 15.5

response.value for "Cc1cc([C@H]2CC[C@H](c3nnc4n3-c3ccc(F)cc3CN(C(=O)OC(C)(C)C)C4)CC2)no1" (field: Ki) = 0.776

response.value for "Cc1onc([C@H]2CC[C@H](c3nnc4n3-c3ccc(Cl)cc3CN(C)C4)CC2)c1Cl" (field: Ki) = 0.603

response.value for "CC(C)(C)OC(=O)N1Cc2cc(Cl)ccc2-n2c(nnc2[C@H]2CC[C@@H](c3noc4c3CCCC4)CC2)C1" (field: Ki) = 46.8

response.value for "CN1Cc2cc(Cl)ccc2-n2c(nnc2[C@H]2CC[C@H](c3noc4c3CCC4)CC2)C1" (field: Ki) = 1.58

response.value for "Cc1cnc([C@H]2CC[C@H](c3nnc4n3-c3ccc(Cl)cc3CNC4)CC2)o1" (field: Ki) = 18.6

response.value for "Cc1cc([C@H]2CC[C@H](c3nnc4n3-c3ccc(Cl)cc3CN(C(=O)CN(C)C)C4)CC2)no1" (field: Ki) = 2

response.value for "CNCCN1Cc2cc(Cl)ccc2-n2c(nnc2[C@H]2CC[C@H](c3cc(C)on3)CC2)C1" (field: Ki) = 25.1

* * *

molecular target: human V1a receptor (Homo sapiens); construct: expressed in transfected cells; host or cells: HEK293 cells, transiently transfected; membranes prepared; experiment: human V1a receptor binding (3H-Vasopressin SPA, HEK293 membranes); conditions: membranes of HEK293 cells transiently transfected with human V1a receptor, Ki by Cheng-Prussoff, read-out: pKi (hV1a) (converted)
Provide the recorded log10 of Ki for the entries that follow.
Each number you see is log10 of Ki, and the unit inside the log is nM.

Query "Cc1nsc([C@H]2CC[C@H](c3nnc4n3-c3ccc(Cl)cc3CN(C(=O)OC(C)(C)C)C4)CC2)n1" on human V1a receptor (Homo sapiens); log10 of Ki returned: 0.18

Query "Cc1cc([C@H]2CC[C@H](c3nnc4n3-c3ccc(F)cc3CN(C)C4)CC2)no1" on human V1a receptor (Homo sapiens); log10 of Ki returned: 1.27

Query "Cc1cnc([C@H]2CC[C@H](c3nnc4n3-c3ccc(Cl)cc3CN(C)C4)CC2)o1" on human V1a receptor (Homo sapiens); log10 of Ki returned: 0.34

Query "Clc1ccc2c(c1)CNCc1nnc([C@H]3CC[C@@H](c4noc5c4CCCC5)CC3)n1-2" on human V1a receptor (Homo sapiens); log10 of Ki returned: 2.28

Query "Cc1cc([C@H]2CC[C@H](c3nnc4n3-c3ccc(Cl)cc3CN(CC(F)F)C4)CC2)no1" on human V1a receptor (Homo sapiens); log10 of Ki returned: -0.22

Query "Cc1nc([C@H]2CC[C@H](c3nnc4n3-c3ccc(Cl)cc3CNC4)CC2)cs1" on human V1a receptor (Homo sapiens); log10 of Ki returned: 1.09

Query "Cc1nc([C@H]2CC[C@H](c3nnc4n3-c3ccc(Cl)cc3CN(C)C4)CC2)no1" on human V1a receptor (Homo sapiens); log10 of Ki returned: 0.51

Query "CC(=O)N1Cc2cc(Cl)ccc2-n2c(nnc2[C@H]2CC[C@H](c3noc(C)n3)CC2)C1" on human V1a receptor (Homo sapiens); log10 of Ki returned: 1.36

Query "CC(C)(C)OC(=O)N1Cc2cc(Cl)ccc2-n2c(nnc2[C@H]2CC[C@H](c3ncco3)CC2)C1" on human V1a receptor (Homo sapiens); log10 of Ki returned: 0.00

Query "CC(C)(C)OC(=O)N1Cc2cc(Cl)ccc2-n2c(nnc2[C@H]2CC[C@H](c3noc4c3CCCC4)CC2)C1" on human V1a receptor (Homo sapiens); log10 of Ki returned: 0.98

Query "Cc1nc([C@H]2CC[C@H](c3nnc4n3-c3ccc(Cl)cc3CNC4)CC2)oc1Cl" on human V1a receptor (Homo sapiens); log10 of Ki returned: 0.73

Query "Cc1noc([C@H]2CC[C@H](c3nnc4n3-c3ccc(Cl)cc3CN(C)C4)CC2)n1" on human V1a receptor (Homo sapiens); log10 of Ki returned: 0.82

Query "CCc1cc([C@H]2CC[C@@H](c3nnc4n3-c3ccc(Cl)cc3CN(C(=O)OC(C)(C)C)C4)CC2)no1" on human V1a receptor (Homo sapiens); log10 of Ki returned: 0.92

Query "CCc1nc([C@H]2CC[C@H](c3nnc4n3-c3ccc(Cl)cc3CN(C(=O)OC(C)(C)C)C4)CC2)no1" on human V1a receptor (Homo sapiens); log10 of Ki returned: 0.49

Query "Clc1ccc2c(c1)CNCc1nnc([C@H]3CC[C@H](c4onc5c4CCCC5)CC3)n1-2" on human V1a receptor (Homo sapiens); log10 of Ki returned: 1.48

Query "CN1Cc2cc(Cl)ccc2-n2c(nnc2[C@H]2CC[C@H](c3noc4c3CCCC4)CC2)C1" on human V1a receptor (Homo sapiens); log10 of Ki returned: 0.20
